Molecular target: NLRP3 (Homo sapiens)
Sequence (Q96P20 whole entry): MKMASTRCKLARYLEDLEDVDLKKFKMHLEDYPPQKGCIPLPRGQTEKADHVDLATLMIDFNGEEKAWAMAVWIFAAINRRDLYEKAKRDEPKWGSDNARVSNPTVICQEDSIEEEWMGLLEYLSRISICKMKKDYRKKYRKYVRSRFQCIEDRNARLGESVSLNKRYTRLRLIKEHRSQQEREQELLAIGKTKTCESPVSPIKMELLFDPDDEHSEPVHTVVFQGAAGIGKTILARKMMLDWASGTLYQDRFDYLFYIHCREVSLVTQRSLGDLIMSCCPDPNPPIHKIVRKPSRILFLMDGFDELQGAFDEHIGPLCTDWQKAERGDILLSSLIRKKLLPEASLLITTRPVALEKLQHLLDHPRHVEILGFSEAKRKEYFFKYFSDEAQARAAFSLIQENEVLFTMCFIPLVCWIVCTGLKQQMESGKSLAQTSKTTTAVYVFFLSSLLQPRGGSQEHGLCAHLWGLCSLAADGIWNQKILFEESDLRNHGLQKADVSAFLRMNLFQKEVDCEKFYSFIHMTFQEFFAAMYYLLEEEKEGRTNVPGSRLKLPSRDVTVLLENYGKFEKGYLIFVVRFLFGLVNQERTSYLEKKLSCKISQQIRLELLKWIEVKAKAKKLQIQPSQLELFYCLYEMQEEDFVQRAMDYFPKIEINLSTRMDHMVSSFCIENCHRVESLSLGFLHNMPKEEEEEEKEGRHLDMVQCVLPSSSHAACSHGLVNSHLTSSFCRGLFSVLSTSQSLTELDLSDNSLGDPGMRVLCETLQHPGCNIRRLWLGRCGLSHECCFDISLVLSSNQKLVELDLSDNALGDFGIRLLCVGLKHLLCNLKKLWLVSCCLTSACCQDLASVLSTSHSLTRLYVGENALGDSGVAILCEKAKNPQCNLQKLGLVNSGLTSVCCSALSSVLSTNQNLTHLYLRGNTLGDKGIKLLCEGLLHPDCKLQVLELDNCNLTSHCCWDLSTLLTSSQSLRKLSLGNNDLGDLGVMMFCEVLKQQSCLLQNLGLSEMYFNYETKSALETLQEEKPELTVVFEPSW
Assay: THP-1 cells pyroptosis assay (LPS + nigericin, resazurin read-out)
Format: cell-based
Design: Seed THP-1 cells (25,000 cells/well) containing 1.0 μg/ml LPS; host or cells: THP-1 cells
Details: THP-1 cells, 1 μg/ml LPS, 5 μM nigericin; NLRP3 inhibitory activity; read-out: THP IC50
Counter-ions that a name gives are not always drawn.
Result Type: IC50

In the examples that follow, each entry is paired with its recorded IC50.
Lookup: Supply IC50 value. Item: CN1C[C@@H]2CN(S(=O)(=O)NC(=O)Nc3c4c(cc5c3CCC5)CCC4)C[C@@H]21 [Example 93, potassium salt]
Found: < 500 nM

Lookup: Supply IC50 value. Item: CN1CC2CN(S(=O)(=O)NC(=O)Nc3c4c(cc5c3CCC5)CCC4)CC2C1 (stereo not drawn)
Found: < 5000 nM

Lookup: Supply IC50 value. Item: CC(C)c1cc(F)cc(-c2ccnc(C#N)c2)c1NC(=O)NS(=O)(=O)N(C)C1CCN(C)C1 (stereo not drawn)
Found: < 5000 nM

Lookup: Supply IC50 value. Item: O=C(Nc1c2c(cc3c1CCC3)CCC2)NS(=O)(=O)N1[C@@H]2CC[C@H]1C[C@@H](N1CCCC1)C2
Found: < 1000 nM

Lookup: Supply IC50 value. Item: CCN(CC)CCNS(=O)(=O)NC(=O)Nc1c2c(cc3c1CCC3)CCC2 [Example 40, potassium salt]
Found: < 1000 nM

Lookup: Supply IC50 value. Item: CC(=O)N(C)CCN(C)S(=O)(=O)NC(=O)Nc1c2c(cc3c1CCC3)CCC2 [Example 41, potassium salt]
Found: < 5000 nM

Lookup: Supply IC50 value. Item: CN(C)C1CCCN(S(=O)(=O)NC(=O)Nc2c3c(cc4c2CCC4)CCC3)C1 (stereo not drawn) [Example 15, potassium salt]
Found: < 500 nM

Lookup: Supply IC50 value. Item: CN1CCC(N(C)S(=O)(=O)NC(=O)Nc2c3c(cc4c2CCC4)CCC3)C1 (stereo not drawn) [Example 11, potassium salt]
Found: < 500 nM

More entries:
Lookup: Supply IC50 value. Item: CN1C[C@@H]2C[C@H]1CN2S(=O)(=O)NC(=O)Nc1c2c(cc3c1CCC3)CCC2 [Example 67, potassium salt]
Found: < 1000 nM

Lookup: Supply IC50 value. Item: CCN1C2CCC1CN(S(=O)(=O)NC(=O)Nc1c3c(cc4c1CCC4)CCC3)C2 [Example 61, potassium salt]
Found: < 500 nM

Lookup: Supply IC50 value. Item: O=C(Nc1c2c(cc3c1CCC3)CCC2)NS(=O)(=O)N1CC(N2CCC2)C1 [Example 46, potassium salt]
Found: < 1000 nM

Lookup: Supply IC50 value. Item: CN1CC2CN(S(=O)(=O)NC(=O)Nc3c4c(cc5c3CCC5)CCC4)C2C1 (stereo not drawn) [Example 94, potassium salt]
Found: < 500 nM

Lookup: Supply IC50 value. Item: CC(C)N1CCC(N(C)S(=O)(=O)NC(=O)Nc2c3c(cc4c2CCC4)CCC3)C1 (stereo not drawn) [Example 36, potassium salt]
Found: < 500 nM

Lookup: Supply IC50 value. Item: CN1CCCN(S(=O)(=O)NC(=O)Nc2c3c(cc4c2CCC4)CCC3)CC1 [Example 90, potassium salt]
Found: < 1000 nM

Lookup: Supply IC50 value. Item: CN1CC2(CCN2S(=O)(=O)NC(=O)Nc2c3c(cc4c2CCC4)CCC3)C1 [Example 91, potassium salt]
Found: < 1000 nM
